test: clinical; settings: female, human, in vivo, Plasma anastrozole, post-escitalopram
outcome measure: concentration at 1 month (ng/mL)

| compound string | outcome measure | observed measurement |
| --- | --- | --- |
| CC(C)(C#N)c1cc(Cn2cncn2)cc(C(C)(C)C#N)c1 | concentration at 1 month | 40.4 |

* * *

assay: clinical; conditions: female, human, in vivo, Plasma anastrozole levels, range
outcome measure: concentration at 1 month

| compound string | outcome measure | observed measurement |
| --- | --- | --- |
| CC(C)(C#N)c1cc(Cn2cncn2)cc(C(C)(C)C#N)c1 | concentration at 1 month | 0.0091 to 0.057 µg/mL |
